Tested on: Streptococcus pneumoniae
TEST: Antibacterial activity against penicillin-nonsusceptible Streptococcus pneumoniae isolate by agar dilution method
Format: functional
Catalogue of compounds with associated MIC90
MEASURED_PROPERTY: MIC90 (µg/mL)

COMPOUND	MEASURED_PROPERTY	LIMIT_OPERATOR	VAL
CO/N=C(\C(=O)N[C@@H]1C(=O)N2C(C(=O)O)=C(CSc3nc(=O)c(O)nn3C)CS[C@H]12)c1csc(N)n1 [CEFTRIAXONE]	MIC90	=	2
CCO/N=C(\C(=O)N[C@@H]1C(=O)N2C(C(=O)[O-])=C(Sc3nc(-c4cc[n+](C)cc4)cs3)CS[C@H]12)c1nsc(NP(=O)(O)O)n1 [CEFTAROLINE FOSAMIL]	MIC90	=	0.25
CC1(C)S[C@@H]2[C@H](NC(=O)[C@H](N)c3ccccc3)C(=O)N2[C@H]1C(=O)O [AMPICILLIN]	MIC90	≥	16
CO/N=C(\C(=O)N[C@@H]1C(=O)N2C(C(=O)O)=C(COC(N)=O)CS[C@H]12)c1ccco1 [CEFUROXIME]	MIC90	=	16
C[C@H]1COc2c(N3CCN(C)CC3)c(F)cc3c(=O)c(C(=O)O)cn1c23.C[C@H]1COc2c(N3CCN(C)CC3)c(F)cc3c(=O)c(C(=O)O)cn1c23.O [LEVOFLOXACIN]	MIC90	≤	1
CC1(C)S[C@@H]2[C@H](NC(=O)Cc3ccccc3)C(=O)N2[C@H]1C(=O)O [PENICILLIN G]	MIC90	=	4
CC1(C)S[C@@H]2[C@H](NC(=O)[C@H](N)c3ccc(O)cc3)C(=O)N2[C@H]1C(=O)O [AMOXICILLIN]	MIC90	≥	16
CO/N=C(\C(=O)N[C@@H]1C(=O)N2C(C(=O)O)=C(COC(C)=O)CS[C@H]12)c1csc(N)n1 [CEFOTAXIME]	MIC90	=	4
CC[C@H]1OC(=O)[C@H](C)[C@@H](O[C@H]2C[C@@](C)(OC)[C@@H](O)[C@H](C)O2)[C@H](C)[C@@H](O[C@@H]2O[C@H](C)C[C@H](N(C)C)[C@H]2O)[C@](C)(O)C[C@@H](C)C(=O)[C@H](C)[C@@H](O)[C@]1(C)O [ERYTHROMYCIN]	MIC90	≥	32
CO/N=C(\C(=O)N[C@@H]1C(=O)N2C(C(=O)[O-])=C(C[N+]3(C)CCCC3)CS[C@H]12)c1csc(N)n1	MIC90	=	4

* * *

Catalogue of molecules with associated MIC90
Test system: Streptococcus pneumoniae
TEST: Antibacterial activity against penicillin-susceptible Streptococcus pneumoniae isolate by agar dilution method
Format: functional
MEASURED_PROPERTY: MIC90 (µg/mL)

                                        smi         target_under_test  readout_units   val
0  CO/N=C(\C(=O)N[C@@H]1C(=O)N2C(C(=O)O)=C(COC(N)=O)CS[C@H]12)c1ccco1  Streptococcus pneumoniae          µg/mL     8
1  CC1(C)S[C@@H]2[C@H](NC(=O)Cc3ccccc3)C(=O)N2[C@H]1C(=O)O  Streptococcus pneumoniae          µg/mL     2
2  CO/N=C(\C(=O)N[C@@H]1C(=O)N2C(C(=O)O)=C(COC(C)=O)CS[C@H]12)c1csc(N)n1  Streptococcus pneumoniae          µg/mL     2
3  CC1(C)S[C@@H]2[C@H](NC(=O)[C@H](N)c3ccccc3)C(=O)N2[C@H]1C(=O)O  Streptococcus pneumoniae          µg/mL     8
4  CO/N=C(\C(=O)N[C@@H]1C(=O)N2C(C(=O)O)=C(CSc3nc(=O)c(O)nn3C)CS[C@H]12)c1csc(N)n1  Streptococcus pneumoniae          µg/mL     1
5  CO/N=C(\C(=O)N[C@@H]1C(=O)N2C(C(=O)[O-])=C(C[N+]3(C)CCCC3)CS[C@H]12)c1csc(N)n1  Streptococcus pneumoniae          µg/mL     2
6  CC1(C)S[C@@H]2[C@H](NC(=O)[C@H](N)c3ccc(O)cc3)C(=O)N2[C@H]1C(=O)O  Streptococcus pneumoniae          µg/mL     8
7  CCO/N=C(\C(=O)N[C@@H]1C(=O)N2C(C(=O)[O-])=C(Sc3nc(-c4cc[n+](C)cc4)cs3)CS[C@H]12)c1nsc(NP(=O)(O)O)n1  Streptococcus pneumoniae          µg/mL  0.12
